# Test system: HEK
# test: Cell cytotoxicity 50 assay (CC50), HEK cells
# Type: cell-based
attributeMeasured: CC50

Req: Could you share which CC50 value was measured for O=C(CCC1CCC(=O)N1)Nc1ccc(-c2nc3ccccc3s2)cc1 (stereo not drawn) [Compound 26] ?
Resp: > 10 µM

Req: Further, for O=C(CCCN1C(=O)CCC1=O)Nc1nc2ccccc2s1 [Compound 108] ?
Resp: > 10 µM

Req: Further, for O=C(CCCN1C(=O)CCC1=O)N[C@H]1CC[C@H](c2nc3ccccc3s2)C1 [Compound 161] ?
Resp: > 10 µM

---

# test: Cell cytotoxicity 50 assay (CC50), MB200 cells, cell titer glo
# Assay type: cell-based
# protocolConditions: human
attributeMeasured: CC50 at 72 h

Req: Could you share which CC50 at 72 h value was measured for O=C(CCc1cocn1)Nc1ccc(-c2nc3ccccc3s2)cc1 [Compound 57] ?
Resp: > 10 µM

Req: Further, for CC(=O)NCCCC(=O)NCc1ccc(-c2nc3ccccc3s2)cc1 [Compound 105] ?
Resp: > 10 µM

Req: Further, for O=C(CCCN1C(=O)CCC1=O)NCc1ccc(-c2nc3ccccc3s2)cc1 [Compound 93] ?
Resp: > 10 µM

Req: Further, for CCOCCCC(=O)Nc1ccc(-c2nc3ccccc3s2)cc1 [Compound 3] ?
Resp: 1 to 10 µM

Req: Further, for CC(=O)NCCC(=O)Nc1ccc(-c2nc3cc(C#N)ccc3s2)cc1 [Compound 103] ?
Resp: > 10 µM

Req: Further, for CC(=O)NCCCC(=O)Nc1coc(-c2nccs2)c1 [Compound 79] ?
Resp: > 10 µM

Req: Further, for CC(=O)NCCNC(=O)c1ccc(-c2nc3cc(F)ccc3s2)cc1 [Compound 30] ?
Resp: > 10 µM

Req: Further, for O=C(Nc1ccc(-c2nc3ccccc3s2)cc1)C1CCC(N2C(=O)CCC2=O)C1 (stereo not drawn) [Compound 94] ?
Resp: > 10 µM

Req: Further, for CN(C(=O)CCCN1C(=O)CCC1=O)c1ccc(Cc2nc3ccccc3s2)cc1 [Compound 169] ?
Resp: > 10 µM
